Biological target: T1, Recombinant DR3-Fc (R&D Systems, cat. #943-D3) (UniProt Q93038 25-199, limits assumed)
T1 construct: dimeric MW~92 kDa; also called DR3 receptor; Fc-DR3; not shown: Fc part of the bought fusion
T1 sequence (looked up): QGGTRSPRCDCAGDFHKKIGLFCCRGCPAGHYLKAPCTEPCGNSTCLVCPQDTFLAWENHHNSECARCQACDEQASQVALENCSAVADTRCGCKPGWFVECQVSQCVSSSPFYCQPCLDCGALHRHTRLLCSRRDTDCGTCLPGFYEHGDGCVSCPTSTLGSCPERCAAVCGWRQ
Experiment: ELISA, DR3-Fc immobilized
measured_quantity: EC50 (nM)
Number only, in nM; omit the unit.

Q: Param item = TL1W98 (His-TEV-TL1A K173R) (ligand, also called TL1W98 (K173R)) HHHHHHENLYFQGLKGQEFAPSHQQVYAPLRADGDKPRAHLTVVRQTPTQHFKNQFPALHWEHELGLAFTKNRMNYTNKFLLIPESGDYFIYSQVTFRGMTSECSEIRQAGRPNRPDSITVVITKVTDSYPEPTQLLMGTKSVCEVGSNWFQPIYLGAMFSLQEGDKLMVNVSDISLVDYTKEDKTFFGAFLL ; retrieve measured EC50.
A: 2050

Q: Param item = TL1W46 (His-TEV-TL1A T239W) (ligand, also called TL1W46 (T239W)) HHHHHHENLYFQGLKGQEFAPSHQQVYAPLRADGDKPRAHLTVVRQTPTQHFKNQFPALHWEHELGLAFTKNRMNYTNKFLLIPESGDYFIYSQVTFRGMTSECSEIRQAGRPNKPDSITVVITKVTDSYPEPTQLLMGTKSVCEVGSNWFQPIYLGAMFSLQEGDKLMVNVSDISLVDYWKEDKTFFGAFLL ; retrieve measured EC50.
A: 284

Q: Param item = TL1W24 (His-TEV-hTL1A 72-251 F209A) (ligand, also called TL1W24 (F209A)) HHHHHHENLYFQGLKGQEFAPSHQQVYAPLRADGDKPRAHLTVVRQTPTQHFKNQFPALHWEHELGLAFTKNRMNYTNKFLLIPESGDYFIYSQVTFRGMTSECSEIRQAGRPNKPDSITVVITKVTDSYPEPTQLLMGTKSVCEVGSNWAQPIYLGAMFSLQEGDKLMVNVSDISLVDYTKEDKTFFGAFLL ; retrieve measured EC50.
A: 281
